These entries and their values trace back to ChEMBL document CHEMBL1155535.

Molecular target: Inhibitor of nuclear factor kappa-B kinase subunit beta (Homo sapiens, UniProt O14920)
Sequence (O14920 whole entry): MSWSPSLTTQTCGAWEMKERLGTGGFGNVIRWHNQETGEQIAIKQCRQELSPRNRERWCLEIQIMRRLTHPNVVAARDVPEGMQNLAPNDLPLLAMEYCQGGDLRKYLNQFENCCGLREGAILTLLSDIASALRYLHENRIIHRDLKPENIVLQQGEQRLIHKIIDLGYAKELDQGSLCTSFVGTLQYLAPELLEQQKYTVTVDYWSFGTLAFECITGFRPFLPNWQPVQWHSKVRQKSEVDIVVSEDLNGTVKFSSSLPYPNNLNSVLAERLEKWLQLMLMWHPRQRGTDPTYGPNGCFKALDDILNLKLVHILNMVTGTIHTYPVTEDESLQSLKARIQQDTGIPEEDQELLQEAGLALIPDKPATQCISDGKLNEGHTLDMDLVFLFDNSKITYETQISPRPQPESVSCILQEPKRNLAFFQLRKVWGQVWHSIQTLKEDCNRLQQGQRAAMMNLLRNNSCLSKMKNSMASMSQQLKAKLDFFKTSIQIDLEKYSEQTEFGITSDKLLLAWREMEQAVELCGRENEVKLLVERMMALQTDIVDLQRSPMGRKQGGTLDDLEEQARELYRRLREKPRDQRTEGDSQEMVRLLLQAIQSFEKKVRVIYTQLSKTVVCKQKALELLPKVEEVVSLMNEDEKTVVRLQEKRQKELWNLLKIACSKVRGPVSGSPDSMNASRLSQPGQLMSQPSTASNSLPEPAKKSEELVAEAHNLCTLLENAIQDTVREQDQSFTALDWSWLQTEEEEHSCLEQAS
Assay: Inhibition of FLAG-tagged IKK-beta after 30 mins
Can you tell me IC50 for the items I'm about to list?
Record the value in nM, omitting the unit from your answer.

IC50 of Cc1ccc(-c2ccnc(Nc3ccc(S(N)(=O)=O)cc3)n2)s1 on Inhibitor of nuclear factor kappa-B kinase subunit beta (Homo sapiens, UniProt O14920)?
19

IC50 of CC(C)CC(=O)Nc1ccc2c(c1)CCc1cnc(Nc3ccc(S(N)(=O)=O)cc3)nc1-2 on Inhibitor of nuclear factor kappa-B kinase subunit beta (Homo sapiens, UniProt O14920)?
1940

IC50 of O=S(=O)(NCCO)c1ccc(Nc2nccc(-c3ccsc3)n2)cc1 on Inhibitor of nuclear factor kappa-B kinase subunit beta (Homo sapiens, UniProt O14920)?
130

IC50 of NS(=O)(=O)c1ccc(Nc2ncc3c(n2)-c2ccccc2CC3)cc1 on Inhibitor of nuclear factor kappa-B kinase subunit beta (Homo sapiens, UniProt O14920)?
1830

IC50 of NS(=O)(=O)c1ccc(Nc2nccc(-c3ccc(NC(=O)Cc4cccs4)cc3)n2)cc1 on Inhibitor of nuclear factor kappa-B kinase subunit beta (Homo sapiens, UniProt O14920)?
20

IC50 of CN(C)CCNS(=O)(=O)c1ccc(Nc2nccc(-c3ccsc3)n2)cc1 on Inhibitor of nuclear factor kappa-B kinase subunit beta (Homo sapiens, UniProt O14920)?
230

IC50 of CC(C)C(=O)Nc1ccc2c(c1)CCc1cnc(Nc3ccc(S(N)(=O)=O)cc3)nc1-2 on Inhibitor of nuclear factor kappa-B kinase subunit beta (Homo sapiens, UniProt O14920)?
1110

IC50 of CC(C)=CC(=O)Nc1ccc2c(c1)CCc1cnc(Nc3ccc(S(N)(=O)=O)cc3)nc1-2 on Inhibitor of nuclear factor kappa-B kinase subunit beta (Homo sapiens, UniProt O14920)?
1590

IC50 of CN(C)CCCNS(=O)(=O)c1ccc(Nc2ncc3c(n2)-c2ccsc2CC3)cc1 on Inhibitor of nuclear factor kappa-B kinase subunit beta (Homo sapiens, UniProt O14920)?
780

IC50 of CN(C)CCNS(=O)(=O)c1ccc(Nc2ncc3c(n2)-c2ccsc2CC3)cc1 on Inhibitor of nuclear factor kappa-B kinase subunit beta (Homo sapiens, UniProt O14920)?
770

IC50 of NS(=O)(=O)c1ccc(Nc2ncc3c(n2)-c2ccsc2CC3)cc1 on Inhibitor of nuclear factor kappa-B kinase subunit beta (Homo sapiens, UniProt O14920)?
790

IC50 of NS(=O)(=O)c1ccc(Nc2nccc(-c3ccc(NC(=O)Cc4ccccc4)cc3)n2)cc1 on Inhibitor of nuclear factor kappa-B kinase subunit beta (Homo sapiens, UniProt O14920)?
50

IC50 of COc1ccc(-c2ccnc(Nc3ccc(S(N)(=O)=O)cc3)n2)cc1 on Inhibitor of nuclear factor kappa-B kinase subunit beta (Homo sapiens, UniProt O14920)?
40

IC50 of NS(=O)(=O)c1ccc(Nc2nccc(-c3ccccc3)n2)cc1 on Inhibitor of nuclear factor kappa-B kinase subunit beta (Homo sapiens, UniProt O14920)?
20200

IC50 of O=S(=O)(NCCO)c1ccc(Nc2ncc3c(n2)-c2ccsc2CC3)cc1 on Inhibitor of nuclear factor kappa-B kinase subunit beta (Homo sapiens, UniProt O14920)?
1220

IC50 of NS(=O)(=O)c1ccc(Nc2ncc3c(n2)-c2ccc(NC(=O)Cc4ccsc4)cc2CC3)cc1 on Inhibitor of nuclear factor kappa-B kinase subunit beta (Homo sapiens, UniProt O14920)?
310

IC50 of NS(=O)(=O)c1ccc(Nc2ncc3c(n2)-c2ccc(NC(=O)c4ccco4)cc2CC3)cc1 on Inhibitor of nuclear factor kappa-B kinase subunit beta (Homo sapiens, UniProt O14920)?
2230

IC50 of NS(=O)(=O)c1ccc(Nc2ncc3c(n2)-c2ccc(NC(=O)Cc4cccs4)cc2CC3)cc1 on Inhibitor of nuclear factor kappa-B kinase subunit beta (Homo sapiens, UniProt O14920)?
510

IC50 of NS(=O)(=O)c1ccc(Nc2ncc3c(n2)-c2ccc(NC(=O)Cc4ccccc4)cc2CC3)cc1 on Inhibitor of nuclear factor kappa-B kinase subunit beta (Homo sapiens, UniProt O14920)?
2380

IC50 of CN(C)CCCNS(=O)(=O)c1ccc(Nc2nccc(-c3ccsc3)n2)cc1 on Inhibitor of nuclear factor kappa-B kinase subunit beta (Homo sapiens, UniProt O14920)?
170
